Assign melting point to each entry below.

> print(dat)
                                   compound   measure.name   assay.result
1                    NC(=O)C(=O)c1ccccc1CCl  melting point  105 to 107 °C
2  O=C(O)c1ccc(OCCNC(=O)C2Cc3ccccc3N2S(=O)(=O)c2ccc(-c3cccc(C(F)(F)F)c3)cc2)cc1F (centres undefined)  melting point   97 to 105 °C
3  O=C(CC1CCCC(Cl)C1)Nc1ccccc1 (centres undefined)  melting point  110 to 112 °C
4  CSc1ncc(C(=O)N(C)Cc2cc(C(F)(F)F)cc(C(F)(F)F)c2)c(-c2ccccc2)n1  melting point  119 to 120 °C
5             CC(C)COC(=O)C(C#N)=CNCc1ccco1  melting point    85 to 87 °C
6  CCCCCCC(C(C)O)n1c(C)nc(C(N)=O)c1N (centres undefined)  melting point  142 to 144 °C
7  O=C1CC(NC(=O)C2CCCN3C(=O)CCC(NC(=O)c4ccccc4)C(=O)N23)C(OCCc2ccccc2)O1 (centres undefined)  melting point         101 °C
8  O=S(=O)(c1ccccc1)n1c(SC(F)(F)F)nc(-c2ccc(F)cc2)c1-c1ccc(F)cc1  melting point  154 to 155 °C

Now turn to the next compound.
Memo: "O=C(C(=O)c1ccc([N+](=O)[O-])cc1)c1ccc([N+](=O)[O-])cc1" , reported melting point: 211 to 212 °C

----------
Assign melting point to each entry below.

> print(dat)
                                   compound   assay.result
1  CC(c1cccnc1)N(c1ccc(F)cc1F)S(C)(=O)=O (stereo unspecified)    76 to 78 °C
2  CN(C1CC(C)(C)NC(C)(C)C1)C1CC(C)(C)NC(C)(C)C1    51 to 53 °C
3       c1ccc(Nc2c(-c3ccccc3)sc3ccccc23)cc1  142 to 143 °C

For every item below, please supply its melting point.
1. Cn1c(C(F)(F)F)cc(=O)n(-c2ccc3snc(CS(=O)(=O)CC(=O)O)c3c2)c1=O
2. O=C(NCCCCCCO)OCc1ccccc1
3. CC(C)(C(=O)c1ccc(N2CCCCC2)cc1)N1CCOCC1
4. O=C1N(Cc2nnc(-c3ccc(Cl)cc3)o2)c2ccccc2C12COc1cc3c(cc12)OCO3 (stereo unspecified)
5. O=C(O)C1CN(Cc2ccccc2)CCN1Cc1ccccc1 (stereo unspecified)
6. CCOC(=O)C1=C(C)NC(N)=C(C(=O)OC(C)C)C1c1ccccc1C#N (stereo unspecified)

Result:
1: 215 °C; 2: 67 to 68 °C; 3: 159 to 162 °C; 4: 161 to 162 °C; 5: 184 to 185 °C; 6: 200 °C

For every item below, please supply its melting point.
1. CC1(C)OC(c2ccc(S(C)(=O)=O)cc2)=C(Br)C1=O
2. COc1cccc(OC)c1CC(=O)N1C[C@@H]2C(=O)CCC(c3ccccc3)(c3ccccc3)[C@@H]2C1 (racemic)

Result:
1: 196 °C; 2: 224 °C

For every item below, please supply its melting point.
1. OCCCc1ccc(Nc2ncc(-c3ccccc3)s2)nc1
2. CCNC(=O)c1cc2c(c(Cl)c1O)CCN(C(=O)OC(C)(C)C)C[C@@H]2c1ccc(O)cc1
3. Cc1nn(-c2cc(C(F)(F)F)ccc2Cl)cc1C(=O)N(CC(=O)O)c1ccc(OCC(C)(C)C)c(C#N)c1
4. CCn1ncc2c(NCC3CCC(CO)CC3)c3ccccc3nc21 (stereo unspecified)
5. Nc1cc(Cl)c(Br)cc1C(=O)O
6. O=S(=O)(NC(CCCN1CCN(c2ncc(F)cn2)CC1)c1ccc(F)cc1)c1ccc(F)cc1 (stereo unspecified)
7. CCOC(=O)c1oc(I)nc1C

Result:
153 to 154 °C
120 to 125 °C
189 to 190 °C
188 to 190 °C
228 to 230 °C
128 to 129 °C
110 to 112 °C

For every item below, please supply its melting point.
1. CCc1c(C(C)C)cc(C(C)C)c(CO)c1-c1ccc(F)cc1
2. COc1c(Br)cc(Br)c2ccc(C=Cc3ccccc3)nc12
3. COC(=O)Cc1cccc(NCCCBr)c1

Result:
["106 to 108 °C", "150 to 152 °C", "129 to 130 °C"]

FYI, the data here is from a melting point compilation (Tetko et al.; mined from patent text by program, amines drawn as free bases though some values may be those of a salt).
